Data provenance is patent US20090029949A1.

- target: S1P1 mutant K5.38A (Homo sapiens, UniProt P21453, K200A)
- assayRemarks: [35S]GTPγS binding, S1P1 K5.38A
- runParameters: S1P-induced, S1P1 K5.38A in RH7777 cells
- Procedure: RH7777 and HEK-293 cells (ATCC, Manassas, Va.) were maintained in Dulbecco's modified minimal essential medium (DMEM) containing 10% fetal bovine serum (Hyclone, Logan, Utah). Cells (2×10^6) were transfected with 2 μg of plasmid DNA with Effectene (Qiagen, Valencia, Calif.) according to the manufacturer's instructions, for 24 h. Before ligand binding and receptor activation assays, the cells were washed twice with serum-free DMEM and serum-starved for at least 6 h. […]
recordedEndpoint: EC50 (nM)

INSERT INTO assay_data (compound, resultunits, reportedresult) VALUES
  ('CCCCCCCCCCCCC/C=C/[C@@H](O)[C@@H](N)COP(=O)(O)O [S1P, Sphingosine 1-phosphate]', 'nM', 32.4);

* * *

- target: S1P1 mutant C5.44I (Homo sapiens, UniProt P21453, C206I)
- Sequence (P21453 whole entry C206I): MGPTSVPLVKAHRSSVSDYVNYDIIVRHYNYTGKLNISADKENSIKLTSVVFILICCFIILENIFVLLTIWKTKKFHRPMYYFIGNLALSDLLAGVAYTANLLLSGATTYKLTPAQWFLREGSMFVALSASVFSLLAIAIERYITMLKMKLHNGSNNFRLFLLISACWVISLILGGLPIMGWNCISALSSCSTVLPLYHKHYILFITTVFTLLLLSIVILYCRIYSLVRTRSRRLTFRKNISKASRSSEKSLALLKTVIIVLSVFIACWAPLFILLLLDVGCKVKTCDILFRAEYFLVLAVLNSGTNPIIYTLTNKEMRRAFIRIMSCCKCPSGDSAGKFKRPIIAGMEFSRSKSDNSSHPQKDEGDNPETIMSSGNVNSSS
- assayRemarks: [35S]GTPγS binding, S1P1 C5.44I
- runParameters: S1P-induced, S1P1 C5.44I in RH7777 cells
pEC50: −log10 of the molar value.
recordedEndpoint: pEC50

INSERT INTO results (compound, reportedresult) VALUES
  ('CCCCCCCCCCCCC/C=C/[C@@H](O)[C@@H](N)COP(=O)(O)O [S1P, Sphingosine 1-phosphate]', 7.69);

* * *

- target: LPA2 (Homo sapiens, UniProt Q9HBW0)
- Sequence (Q9HBW0 whole entry, species assumed): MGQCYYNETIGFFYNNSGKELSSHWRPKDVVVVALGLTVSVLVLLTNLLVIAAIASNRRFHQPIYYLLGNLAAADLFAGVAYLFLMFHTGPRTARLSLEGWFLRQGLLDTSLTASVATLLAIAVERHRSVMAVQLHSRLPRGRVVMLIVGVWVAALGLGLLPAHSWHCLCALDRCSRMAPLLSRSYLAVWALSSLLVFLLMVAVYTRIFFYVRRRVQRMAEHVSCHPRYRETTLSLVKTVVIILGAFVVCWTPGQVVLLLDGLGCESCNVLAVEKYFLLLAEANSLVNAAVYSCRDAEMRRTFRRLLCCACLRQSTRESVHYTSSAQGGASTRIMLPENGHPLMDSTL
- assayRemarks: LPA agonist/antagonist activity at LPA2 (Table 2)
- Assay type: cell-based
- runParameters: result in words
Peptide text beside a SMILES is read from it. * marks the point of attachment. Dnp = O=[N+]([O-])c1ccc(*)c([N+](=O)[O-])c1
recordedEndpoint: LPA2 effect

INSERT INTO measurements (compound, recordedendpoint, reportedresult) VALUES
  ('O=P(O)(O)OC[C@H]1O[C@@H](n2cnc3c(NCc4ccccc4)ncnc32)C(O)C1O (some centres unmarked)', 'LPA2 effect', 'No effect'),
  ('COc1ccc2c(c1)c(CC(=O)O)c(C)n2C(=O)c1ccc(Cl)cc1', 'LPA2 effect', 'No Effect'),
  ('CCCC(=O)Nc1ncnc2c1ncn2C1OC2COP(=O)(O)OC2C1OC(=O)CCC (centres unmarked)', 'LPA2 effect', 'No Effect'),
  ('NCC(=O)NC(CSc1ccc([N+](=O)[O-])cc1[N+](=O)[O-])C(=O)NC(CCC(=O)O)C(=O)O (centres unmarked) [NSC 161613] (H-Gly-Cys(Dnp)-Glu-OH; configuration not given here)', 'LPA2 effect', 'No effect');

* * *

- target: S1P1 mutant W6.48A (Homo sapiens, UniProt P21453, W269A)
- Sequence (P21453 whole entry W269A): as the sequence (P21453 whole entry C206I) above, with I206C, W269A counted along it
- assayRemarks: [35S]GTPγS binding, S1P1 W6.48A
- runParameters: S1P-induced, S1P1 W6.48A in RH7777 cells
pEC50: −log10 of the molar value.
recordedEndpoint: pEC50

INSERT INTO results (compound, reportedresult) VALUES
  ('CCCCCCCCCCCCC/C=C/[C@@H](O)[C@@H](N)COP(=O)(O)O [S1P, Sphingosine 1-phosphate]', 7.89);

* * *

- target: LPA2 (Homo sapiens, UniProt Q9HBW0)
- assayRemarks: LPA agonist/antagonist activity at LPA2 (Table 2)
- Type: cell-based
- runParameters: 10 nM LPA
The entries below are paired with their reported LPA2 Inhibition of 10 nM LPA response.
recordedEndpoint: LPA2 Inhibition of 10 nM LPA response (%)

INSERT INTO results (compound, reportedresult) VALUES
  ('COC(=O)C(CCC(=O)O)N1C(=O)c2ccccc2C1=O (stereo not shown)', 50.9),
  ('COc1ccc(C(=O)CCCC(=O)O)c(OC)c1O', 47.4),
  ('O=C(O)/C=C/C(=O)Nc1cccc(NC(=O)/C=C/C(=O)O)c1C(=O)O', 53.5),
  ('O=C(O)CCC(NC(=O)OCc1ccccc1)C(=O)NC(Cc1ccccc1)C(=O)O (stereo not shown)', 53.3);
